Test system: Tubulin (Sus scrofa)
protocol summary: Inhibition of pig brain tubulin polymerization at 10 uM by spectrophotometry relative to control
# binarize inhibition: threshold 20% inclusive, high side Met, low side Not met

>>> print(df.to_string())
                            molecule_smiles  discrete_label
0      COc1ccc(Cn2cnc3c(Cl)nc(Cl)nc32)cc1OC             Met
1  COc1ccc(N(C)c2nc(Cl)nc3c2ncn3Cc2cc(OC)c(OC)c(OC)c2)cc1         Not met
2  COc1ccc(N(C)c2ncnc3c2ncn3Cc2ccc(OC)c(OC)c2)cc1         Not met
3        COc1ccc(N(C)c2nc(Cl)nc3c2ncn3C)cc1             Met
4    COc1cc(Cn2cnc3c(Cl)nc(Cl)nc32)cc(OC)c1         Not met
5        COc1ccc(Cn2cnc3c(Cl)nc(Cl)nc32)cc1             Met
6  COc1ccc(N(C)c2nc(Cl)nc3c2ncn3Cc2ccc(OC)c(OC)c2)cc1             Met

Note: attention shifts to another entry.
Entry COc1cc(Cn2cnc3c(Cl)nc(Cl)nc32)cc(OC)c1OC : is its inhibition no less than 20%?
Not met

* * *

protocol summary: Cytotoxicity against mouse HT22 cells after 48 hrs by MTT assay
Type: cell-based, HT-22
Entries and their CC50 at 48 h

In [3]: df
Out[3]:
                            molecule_smiles   result_type  endpoint_value
0  COc1ccc(N(C)c2ncnc3c2ncn3Cc2cc(OC)c(OC)c(OC)c2)cc1  CC50 at 48 h           23 µM
1        COc1ccc(N(C)c2nc(Cl)nc3c2ncn3C)cc1  CC50 at 48 h        > 100 µM
2  COc1ccc(N(C)c2ncnc3c2ncn3Cc2ccc(OC)c(OC)c2)cc1  CC50 at 48 h        > 100 µM

Next item in the queue.
Which CC50 at 48 h reading was recorded for the molecule COc1cc(Cn2cnc3c(Cl)nc(Cl)nc32)cc(OC)c1 ?
> 100 µM

* * *

protocol summary: Selectivity index, ratio of GI50 for mouse HT22 cells to GI50 for human SH-SY5Y cells
Type: toxicity
test parameters: HT22 cells and SH-SY5Y cells, read-out: RatioGI50
result type: selectivity ratio

Which selectivity ratio reading was recorded for the compound COc1ccc(N(C)c2ncnc3c2ncn3Cc2cc(OC)c(OC)c(OC)c2)cc1 ?
88

Subsequent entry: COc1ccc(N(C)c2ncnc3c2ncn3Cc2ccc(OC)c(OC)c2)cc1
230

Subsequent entry: COc1ccc(N(C)c2nc(Cl)nc3c2ncn3C)cc1
23

* * *

Test system: AGS
protocol summary: Antiproliferative activity against human AGS cells after 48 hrs by MTT assay
Assay type: functional
Label Yes when GI50 is strictly below 10 µM; at or above that, label No.

Completed entries (count: 3):
>>> print(df.to_string())
                            molecule_smiles  target  discrete_label
0            COc1ccc(N(C)c2ncnc3c2ncn3C)cc1     AGS              No
1                   O=c1[nH]cc(F)c(=O)[nH]1     AGS              No
2  COc1ccc(Cn2cnc3c(N(C)c4ccc(OC)cc4)nc(Cl)nc32)cc1     AGS              No

Dear colleague, could you confirm whether GI50 of COc1cc(Cn2cnc3c(Cl)nc(Cl)nc32)cc(OC)c1OC falls below 10 µM? Thanks.
Yes

Subsequent entry: COc1cc2c(c(OC)c1OC)-c1ccc(OC)c(=O)cc1[C@@H](NC(C)=O)CC2
Yes

Subsequent entry: COc1ccc(N(C)c2nc(Cl)nc3c2ncn3Cc2cc(OC)cc(OC)c2)cc1
No

Subsequent entry: COc1ccc(Cn2cnc3c(Cl)nc(Cl)nc32)cc1OC
No

Subsequent entry: COc1ccc(Cn2cnc3c(Cl)ncnc32)cc1OC
No

Subsequent entry: COc1ccc(N(C)c2nc(Cl)nc3[nH]cnc23)cc1
No

Subsequent entry: COc1ccc(N(C)c2ncnc3c2ncn3Cc2cc(OC)cc(OC)c2)cc1
No

Subsequent entry: COc1ccc(N(C)c2ncnc3c2ncn3Cc2ccc(OC)c(OC)c2)cc1
No

* * *

Tested on: AGS
protocol summary: Antiproliferative activity against human AGS cells after 48 hrs by MTT assay
Format: functional
Label T when GI50 is strictly below 4 µM; at or above that, label F.

Completed entries (count: 5):
>>> df
                            molecule_smiles  discrete_label
0  COc1ccc(N(C)c2nc(Cl)nc3c2ncn3Cc2cc(OC)c(OC)c(OC)c2)cc1               F
1        COc1ccc(N(C)c2nc(Cl)nc3c2ncn3C)cc1               T
2          COc1ccc(N(C)c2ncnc3[nH]cnc23)cc1               F
3            COc1ccc(Cn2cnc3c(Cl)ncnc32)cc1               F
4        COc1ccc(Cn2cnc3c(Cl)nc(Cl)nc32)cc1               F

Dear colleague, could you confirm whether GI50 of COc1cc(Cn2cnc3c(Cl)ncnc32)cc(OC)c1 falls below 4 µM? Thanks.
F

Subsequent entry: COc1cc(Cn2cnc3c(Cl)nc(Cl)nc32)cc(OC)c1
T

Subsequent entry: COc1ccc(N(C)c2nc(Cl)nc3c2ncn3Cc2ccc(OC)c(OC)c2)cc1
F

Subsequent entry: COc1ccc(Cn2cnc3c(N(C)c4ccc(OC)cc4)ncnc32)cc1
F

Subsequent entry: COc1cc(Cn2cnc3c(Cl)ncnc32)cc(OC)c1OC
F

Subsequent entry: COc1ccc(N(C)c2ncnc3c2ncn3Cc2cc(OC)c(OC)c(OC)c2)cc1
F

* * *

protocol summary: Selectivity index, ratio of GI50 for mouse HT22 cells to GI50 for human AGS cells
Type: toxicity
test parameters: HT22 cells and AGS cells, read-out: RatioGI50
result type: selectivity ratio

Which selectivity ratio reading was recorded for the compound COc1ccc(N(C)c2nc(Cl)nc3c2ncn3C)cc1 ?
430

* * *

Test system: SH-SY5Y
protocol summary: Antiproliferative activity against human SH-SY5Y cells after 48 hrs by MTT assay
Type: functional
Entries and their log10 of GI50
Hi team, quick reminder: these entries are log10 of GI50 (µM).

Check out these entries, answers already filled in.
In [3]: df
Out[3]:
                            molecule_smiles  endpoint_value
0  COc1cc2c(c(OC)c1OC)-c1ccc(OC)c(=O)cc1[C@@H](NC(C)=O)CC2           -1.40
1                   O=c1[nH]cc(F)c(=O)[nH]1            1.08
2  COc1ccc(N(C)c2nc(Cl)nc3c2ncn3Cc2cc(OC)c(OC)c(OC)c2)cc1            0.48
3  COc1cc(Cn2cnc3c(Cl)nc(Cl)nc32)cc(OC)c1OC            0.98
4    COc1cc(Cn2cnc3c(Cl)nc(Cl)nc32)cc(OC)c1            0.23
5  COc1ccc(N(C)c2ncnc3c2ncn3Cc2cc(OC)c(OC)c(OC)c2)cc1           -0.59
6  COc1ccc(N(C)c2ncnc3c2ncn3Cc2ccc(OC)c(OC)c2)cc1           -0.37
7  COc1ccc(N(C)c2nc(Cl)nc3c2ncn3Cc2ccc(OC)c(OC)c2)cc1            0.86
8  COc1ccc(Cn2cnc3c(N(C)c4ccc(OC)cc4)nc(Cl)nc32)cc1            1.49
9  COc1ccc(Cn2cnc3c(N(C)c4ccc(OC)cc4)ncnc32)cc1            1.43

Give SH-SY5Y log10 of GI50 for COc1ccc(Cn2cnc3c(Cl)nc(Cl)nc32)cc1OC
0.74

Subsequent entry: COc1ccc(N(C)c2nc(Cl)nc3c2ncn3C)cc1
0.53

Subsequent entry: COc1ccc(Cn2cnc3c(Cl)nc(Cl)nc32)cc1
0.89

Reference for the values: ChEMBL document CHEMBL4130374
